B1: library; numbered along this chain (parent)
chain: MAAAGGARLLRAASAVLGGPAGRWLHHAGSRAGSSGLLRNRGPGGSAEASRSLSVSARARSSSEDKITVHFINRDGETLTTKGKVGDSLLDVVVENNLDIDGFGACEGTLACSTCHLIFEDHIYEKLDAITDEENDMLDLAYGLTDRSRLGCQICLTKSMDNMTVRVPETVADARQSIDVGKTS

- Variants of: B1
- test: scaled log2 fold change in cell abundance, elesclomol vs control (0 = silent mean, 1 = nonsense mean) (scaled log2 ratio); higher = higher viability under elesclomol (loss of FDX1 cuproptosis function);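 further: variant abundance is its share of total variant reads in each endpoint sample, from next-generation sequencing of the integrated ORF PCR-amplified out of genomic DNA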
- condition info: with ABC1 FDX1 KO; elesclomol 5 nM; glucose 10 mM; 14 days
endpoint: scaled log2 fold change

So what's the measured scaled log2 fold change for this one? `D139C`
-0.416

Can you handle `T81G` next?
0.204

Next up: `D128T`
-0.378

And `L53K` ?
0.299

What about `H70L` ?
-0.219

Okay, and `T80N` ?
0.128

And what about the variant `T68R` ?
-0.0852

Now the same for `A172V`
0.337

Now consider `L117K` .
1.07

Check `T114Q` too.
-0.112

Please answer likewise for `A7G`
0.124

Now try `D121T` .
-0.0111

What do you get for `G86K` ?
0.242

And for `Q176R` ?
-0.155

What about this variant? `H116V`
0.0823

Another variant to look at: `G143A`
0.189

Next up: `G45H`
0.0762

Next entry: `G33C`
-0.0719

Next up: `C152D`
1.1

Now give it for `H116P` too.
0.152

Same for `A105T`
-1.22

Please answer likewise for `K84W`
0.191
